assay: in vitro
Type: in vitro ADME
condition-set: human, plasma
value-type: fraction unbound
# print the numeric value only

Problem: Given the compound CN(C(=O)c1ccc(F)cc1C(F)(F)F)C1CCN(c2nnc(-c3ccnn3C)c3ccccc23)CC1 , what is its reported fraction unbound?
Result: 0.056

###

assay: Plasma pharmacokinetics of LY2940680 and LSN3185556 in patients
Type: in vivo, human
condition-set: human, plasma, po
value-type: Vd/F (L)
Note: unit L is implicit; provide only the numeric part.

Problem: Given the molecule CN(C(=O)c1ccc(F)cc1C(F)(F)F)C1CCN(c2nnc(-c3ccnn3C)c3ccccc23)CC1 , what is its reported Vd/F?
Result: 235
